# Tested on: polarized colon cancer T84 cells
# protocol_description: Transepithelial electrical resistance (TEER) permeability assay
# Type: cell-based
# measurement_context: 5 μg dimeric Ad3 fiber knob added 1 hour to apical chamber
# Method: FIG. 5. Correlation of reduced DSG2 binding with the ability to open epithelial junctions. A) Transepithelial electrical resistance (TEER) measured on polarized colon cancer T84 cells. Cells were cultured in transwell chambers until the TEER was constant, i.e. tight junctions had formed. […] TEER was measured at the indicated time points. […] FIG. 9. […] Right panel: mean fluorescence intensity. […] 100 pfu/cell of Ad3GFP virus were then added and GFP expression was analyzed 18 hours later. […]
assay_readout: Effect on TEER

{"molecule": "N186D (protein) MKVSALKEKVSALKEKVSALKEKVSALKEKVSALKEGSGGGSGGGSGGGSNSIALKNNTLWTGPKPEANCIIEYGKQNPDSKLTLILVKNGGIVNGYVTLMGASDYVNTLFKDKNVSINVELYFDATGHILPDSSSLKTDLELKYKQTADFSARGFMPSTTAYPFVLPNAGTHNENYIFGQCYYKASDGALFPLEVTVMLNKRLPDSRTSYVMTFLWSLNAGLAPETTQATLITSPFTFSYIREDD", "recorded_result": "intermediate effects"}
{"molecule": "E299V (protein) MKVSALKEKVSALKEKVSALKEKVSALKEKVSALKEGSGGGSGGGSGGGSNSIALKNNTLWTGPKPEANCIIEYGKQNPDSKLTLILVKNGGIVNGYVTLMGASDYVNTLFKNKNVSINVELYFDATGHILPDSSSLKTDLELKYKQTADFSARGFMPSTTAYPFVLPNAGTHNENYIFGQCYYKASDGALFPLEVTVMLNKRLPDSRTSYVMTFLWSLNAGLAPVTTQATLITSPFTFSYIREDD", "recorded_result": "intermediate effects"}
